Known pEC50 of a selection of molecules
target.desc: Toll-like receptor 7 (Homo sapiens)
Sequence (Q9NYK1 whole entry): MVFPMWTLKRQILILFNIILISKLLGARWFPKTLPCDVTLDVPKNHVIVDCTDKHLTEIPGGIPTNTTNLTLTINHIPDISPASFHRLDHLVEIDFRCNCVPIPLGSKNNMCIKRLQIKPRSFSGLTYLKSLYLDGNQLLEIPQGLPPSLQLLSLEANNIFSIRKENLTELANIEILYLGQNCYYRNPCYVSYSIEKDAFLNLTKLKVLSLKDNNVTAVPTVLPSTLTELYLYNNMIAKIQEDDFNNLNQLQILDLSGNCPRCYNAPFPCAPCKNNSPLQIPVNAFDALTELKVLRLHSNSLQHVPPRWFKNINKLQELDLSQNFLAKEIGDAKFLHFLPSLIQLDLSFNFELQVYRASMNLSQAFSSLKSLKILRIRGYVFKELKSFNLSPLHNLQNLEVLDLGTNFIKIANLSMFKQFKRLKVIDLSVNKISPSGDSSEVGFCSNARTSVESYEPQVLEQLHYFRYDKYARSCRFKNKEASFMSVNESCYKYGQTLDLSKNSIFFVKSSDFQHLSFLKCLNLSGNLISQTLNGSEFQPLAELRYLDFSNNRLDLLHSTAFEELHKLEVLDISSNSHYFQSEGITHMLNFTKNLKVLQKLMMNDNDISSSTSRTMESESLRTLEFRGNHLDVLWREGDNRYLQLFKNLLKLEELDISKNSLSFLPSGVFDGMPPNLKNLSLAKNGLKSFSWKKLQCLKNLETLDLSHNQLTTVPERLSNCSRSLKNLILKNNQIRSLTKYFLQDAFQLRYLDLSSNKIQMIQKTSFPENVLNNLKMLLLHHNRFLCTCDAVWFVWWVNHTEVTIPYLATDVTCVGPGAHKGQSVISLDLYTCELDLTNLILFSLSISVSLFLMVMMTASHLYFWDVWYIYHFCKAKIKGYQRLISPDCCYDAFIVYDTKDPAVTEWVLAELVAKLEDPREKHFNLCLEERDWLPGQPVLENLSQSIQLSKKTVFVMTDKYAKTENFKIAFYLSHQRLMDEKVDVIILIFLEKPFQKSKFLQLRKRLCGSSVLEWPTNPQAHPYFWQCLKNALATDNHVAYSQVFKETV
method.summary: Agonist activity at recombinant human TLR7 transfected in HEK293 cells assessed as induction of SEAP production incubated overnight by SEAP reporter gene based assay
Format: cell-based
pEC50: −log10 of the molar value.
measurement.name: pEC50

>>> numeric_result("CCC[C@@H](CCO)Nc1nc(N)nc(C)c1Cc1ccc(CN2CCNCC2)cc1OC")
8.23
>>> numeric_result("CCC[C@@H](CCO)Nc1nc(N)nc(C)c1Cc1ccc(Cn2ccnc2)cc1OC")
8.56
>>> numeric_result("CCC[C@@H](CO)Nc1nc(N)nc(C)c1Cc1ccc(CNC2CNC2)cc1OC")
6.42
